Origin of measurements: patent US20220298217A1

measured on: T1, Flag-PTHR1-YFP (parathyroid hormone receptor 1) expressed in transfected HEK293T cells (human, UniProt Q03431 27-593)
T1 sequence (looked up): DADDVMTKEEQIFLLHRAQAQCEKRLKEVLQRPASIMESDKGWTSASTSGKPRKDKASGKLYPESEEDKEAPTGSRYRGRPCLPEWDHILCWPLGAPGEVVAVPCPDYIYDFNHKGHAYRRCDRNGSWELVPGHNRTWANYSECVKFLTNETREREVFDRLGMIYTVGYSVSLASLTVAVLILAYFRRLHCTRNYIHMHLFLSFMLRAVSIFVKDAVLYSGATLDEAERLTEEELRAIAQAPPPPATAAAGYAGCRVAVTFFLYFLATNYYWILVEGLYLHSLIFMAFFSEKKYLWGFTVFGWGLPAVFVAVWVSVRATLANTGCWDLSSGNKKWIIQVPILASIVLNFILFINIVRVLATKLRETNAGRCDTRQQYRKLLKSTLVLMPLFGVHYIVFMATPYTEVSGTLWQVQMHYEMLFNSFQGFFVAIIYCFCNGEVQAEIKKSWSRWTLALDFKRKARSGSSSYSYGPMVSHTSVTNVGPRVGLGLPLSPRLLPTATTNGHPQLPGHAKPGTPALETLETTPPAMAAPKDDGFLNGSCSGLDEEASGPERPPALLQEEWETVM
test description: cell-based or functional assay
result type: arrestin 1, plate 9: Emax

> print(dat)
                                     binder  value.measured
1  AVAEIQLMHQRAKWGVELQLKVDLRRILEDVY [R2-35]            16.9
2  AVAEIQLMHQRAKWRLEIELLKKLKEILKDVY [R2-34]            7.29
3  AVAEIQLMHQRAKWKLELELKAFLDQILKDVL [R2-36]             7.4
4  AVAEIQLMHQRAKWLNELRLKEEMRKILEDVY [R2-33]            7.38

I. AVAEIQLMHQRAKWEIQEIGIKITLELLKEYI [R2-37]
II. SVMMIQVMHDLAKIRAEYELREMLLRLLEEIF [R2-8]
Asked: Problem: Given the entries I and II , determine which has the lower reported arrestin 1, plate 9: Emax. Refer to your chosen item by its label in the answer.
Given back: II
